ASSAYED_SYSTEM: HER2YVMA (Homo sapiens, UniProt P04626, INS775YVMA)
Sequence (P04626 with tags, fused parts or gaps INS775YVMA): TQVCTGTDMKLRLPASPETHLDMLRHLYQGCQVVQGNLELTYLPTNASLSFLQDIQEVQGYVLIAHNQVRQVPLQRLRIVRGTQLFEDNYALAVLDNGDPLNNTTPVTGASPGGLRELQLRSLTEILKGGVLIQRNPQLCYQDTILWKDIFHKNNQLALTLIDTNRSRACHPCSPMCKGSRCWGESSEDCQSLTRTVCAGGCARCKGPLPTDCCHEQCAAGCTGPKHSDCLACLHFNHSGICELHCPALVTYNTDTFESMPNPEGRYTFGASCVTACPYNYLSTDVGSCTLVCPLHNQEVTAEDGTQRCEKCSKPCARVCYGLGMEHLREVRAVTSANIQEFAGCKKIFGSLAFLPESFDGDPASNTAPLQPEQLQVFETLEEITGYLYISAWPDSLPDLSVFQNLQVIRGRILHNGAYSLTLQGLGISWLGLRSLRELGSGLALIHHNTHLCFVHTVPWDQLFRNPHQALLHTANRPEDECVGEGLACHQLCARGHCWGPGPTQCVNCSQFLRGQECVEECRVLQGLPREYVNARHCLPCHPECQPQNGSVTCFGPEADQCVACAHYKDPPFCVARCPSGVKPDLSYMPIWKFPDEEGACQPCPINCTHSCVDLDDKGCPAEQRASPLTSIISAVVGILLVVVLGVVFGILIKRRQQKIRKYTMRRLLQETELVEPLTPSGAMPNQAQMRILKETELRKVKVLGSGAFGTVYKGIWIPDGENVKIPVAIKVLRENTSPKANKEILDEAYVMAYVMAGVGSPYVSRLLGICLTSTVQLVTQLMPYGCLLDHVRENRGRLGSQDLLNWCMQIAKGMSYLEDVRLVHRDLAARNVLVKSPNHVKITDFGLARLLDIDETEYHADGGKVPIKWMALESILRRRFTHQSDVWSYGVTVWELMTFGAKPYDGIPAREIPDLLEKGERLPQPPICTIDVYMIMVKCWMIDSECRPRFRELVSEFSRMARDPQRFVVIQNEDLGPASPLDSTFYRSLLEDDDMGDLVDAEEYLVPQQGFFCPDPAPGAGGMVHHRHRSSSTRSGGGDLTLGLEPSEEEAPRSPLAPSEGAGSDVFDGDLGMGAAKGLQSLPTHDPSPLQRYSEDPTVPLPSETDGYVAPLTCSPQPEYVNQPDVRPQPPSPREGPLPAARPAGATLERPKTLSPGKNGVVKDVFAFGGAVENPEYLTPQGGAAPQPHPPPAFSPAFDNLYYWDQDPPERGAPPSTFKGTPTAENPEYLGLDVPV
METHOD_NOTES: HER2 signaling (pHER2) in Hek293-HER2YVMA cells
Assay type: cell-based
Parameters: expressed in transfected cells; host or cells: HEK293 (pool), Ba/F3 (clones), BEAS2B (clones); lentiviral vector pCDH-CMV-MCS-EF1-Neo
CONDITION_PARAMETERS: 1.5 hr compound, 1% FBS, read-out: HEKYVMA pHER2 EC50
As shown below, each of these compounds has a reported EC50 value.

The following compounds have reported results that may help.
Cc1ccc(Oc2ccc(Nc3ncnc4sc5c(c34)CCN(C(=O)/C=C/CN3CCC(CO)(CO)CC3)C5)cc2C)cn1 [Compound 135] = 100 to 350 nM
Cc1ccc(Oc2ccc(Nc3ncnc4sc5c(c34)CCN(C(=O)/C=C/CN3CC(C)(C)OC(C)(C)C3)C5)cc2C)cn1 [Compound 121] = < 100 nM
C=CC(=O)N1[C@H](C)Cc2c(sc3ncnc(Nc4ccc(Oc5ccc(C)nc5)c(C)c4)c23)[C@H]1C (racemic) [Compound 166] = < 100 nM

EC50 in this record for COc1ccc(Oc2ccc(Nc3ncnc4sc5c(c34)CCN(C(=O)/C=C/CN3CC[C@H](CO)C3)C5)cc2C)cn1 [Compound 140] : < 100 nM

EC50 in this record for Cc1ccc(Oc2ccc(Nc3ncnc4sc5c(c34)C(C)CN(C(=O)/C=C/CN3CCOCC3)C5)cc2C)cn1 (stereo not shown) [Compound 174] : < 100 nM

EC50 in this record for Cc1cc(Nc2ncnc3sc4c(c23)CCN(C(=O)/C=C/CN(C)C(C)(C)C)C4)ccc1Oc1ccc2ncnn2c1 [Compound 80] : < 100 nM

EC50 in this record for Cc1cc(Nc2ncnc3sc4c(c23)CCN(C(=O)/C=C/CN(C)C)C4)ccc1Oc1ccc2nccn2c1 [Compound 109] : < 100 nM

EC50 in this record for Cc1ccc(Oc2ccc(Nc3ncnc4sc5c(c34)CCN(C(=O)/C=C/CN3CCn4cc(C(F)(F)F)nc4C3)C5)cc2C)cn1 [Compound 61] : 350 to 1000 nM

EC50 in this record for O=C(/C=C/CN1CC2CC(C2)C1)N1CCc2c(sc3ncnc(Nc4ccc(Oc5ccc6ncnn6c5)c(Cl)c4)c23)C1 [Compound 85] : < 100 nM

EC50 in this record for C=CC(=O)N1Cc2sc3ncnc(Nc4ccc(Oc5ccc(C)nc5)c(C)c4)c3c2C(C)C1 (single isomer, unassigned) [Compound 146] : < 100 nM

EC50 in this record for Cc1ccc(Oc2ccc(Nc3ncnc4sc5c(c34)CCN(C(=O)/C=C/CN3CC=CCC3)C5)cc2C)cn1 [Compound 55] : < 100 nM

EC50 in this record for Cc1ccc(Oc2ccc(Nc3ncnc4sc5c(c34)CCN(C(=O)/C=C/CN3CCC(O)C(C)(C)C3)C5)cc2C)cn1 (stereo not shown) [Compound 114] : < 100 nM

EC50 in this record for Cc1ccc(Oc2ccc(Nc3ncnc4sc5c(c34)CCN(C(=O)/C=C/CN3CCCCC3(C)CO)C5)cc2C)cn1 (stereo not shown) [Compound 119] : < 100 nM

EC50 in this record for Cc1ccc(Oc2ccc(Nc3ncnc4sc5c(c34)CCN(C(=O)/C=C/CN(C)C)CC5)cc2Cl)cn1 [Compound 167] : 100 to 350 nM

EC50 in this record for COc1ccc(Oc2ccc(Nc3ncnc4sc5c(c34)CCN(C(=O)/C=C/CN(C)C)C5)cc2C)cn1 [Compound 95] : < 100 nM

EC50 in this record for Cc1ccc(Oc2ccc(Nc3ncnc4sc5c(c34)CCN(C(=O)/C=C/CNCCS(C)(=O)=O)C5)cc2C)cn1 [Compound 45] : < 100 nM

EC50 in this record for C#CCOCCN(C)C/C=C/C(=O)N1CCc2c(sc3ncnc(Nc4ccc(Oc5ccc(C)nc5)c(C)c4)c23)C1 [Compound 139] : < 100 nM

EC50 in this record for Cc1ccc(Oc2ccc(Nc3ncnc4sc5c(c34)CCN(C(=O)/C=C/CN3CC4CC(C3)O4)C5)cc2C)cn1 [Compound 15] : < 100 nM

EC50 in this record for Cc1ccc(Oc2ccc(Nc3ncnc4sc5c(c34)CCN(C(=O)/C=C/CN3CCCC(F)(CO)C3)C5)cc2C)cn1 (stereo not shown) [Compound 150] : < 100 nM

EC50 in this record for Cc1ccc(Oc2ccc(Nc3ncnc4sc5c(c34)C(C)N(C(=O)/C=C/CN(C)C)C5)cc2C)cn1 (stereo not shown) [Compound 141] : < 100 nM

EC50 in this record for C=CC(=O)N1CCc2c(sc3ncnc(Nc4ccc(Oc5ccc6ncnn6c5)c(Cl)c4)c23)C1 [Compound 4] : < 100 nM
